system: Torulopsis glabrata; test: Antimycotic in vitro activity, serial dilution test (MIC); assay type: cell-based; settings: Nakaseomyces glabratus, meat extract-dextrose broth, 28-37° C., 24 to 96 hours, read-out: MIC values in μg/ml of nutrient medium
quantity.kind: MIC (µg/mL)

>  <compound>
N#CC1(C(O)(Cn2ccnc2)c2ccc(F)cc2)CC1 (stereo not drawn)

>  <unit.string>
µg/mL

>  <quantitative.readout>
8

$$$$

P: N#CC1(C(O)(Cn2cncn2)c2ccc(Cl)cc2)CC1 (stereo not drawn)
Q: N#CC1(C(O)(Cn2cncn2)c2ccc(Cl)cc2F)CC1 (stereo not drawn)
R: N#CC1(C(O)(Cn2cncn2)c2ccc(Cl)cc2Cl)CC1 (stereo not drawn)
Rank by MIC (largest to smallest). Sort and list the labels as requested.
R, Q, P

----------
System: Candida albicans
Experiment: Antimycotic in vitro activity, serial dilution test (MIC)
Format: cell-based
Conditions: Candida albicans; meat extract-dextrose broth, 28-37° C., 24 to 96 hours; read-out: MIC values in μg/ml of nutrient medium
Experimental: The in vitro tests were carried out in a serial dilution test using inocula of microorganisms of on average 5×10^4 to 10^5 microorganisms/ml of substrate. The nutrient medium used was b) for yeasts meat extract-dextrose broth. The incubation temperature was 28° C. to 37° C., and the incubation time was 24 to 96 hours with yeasts and 96 hours with dermatophytes and Hyphomycetes.
quantity.kind: MIC (µg/mL)

Please review the entries below; each comes with its answer.
>  <compound>
N#CC1(C(O)(Cn2cncn2)c2ccc(Cl)cc2F)CC1 (stereo not drawn)

>  <assay.target>
Candida albicans

>  <unit.string>
µg/mL

>  <MIC>
2

$$$$
>  <compound>
N#CC1(C(O)(Cn2cncn2)c2ccc(Cl)cc2)CC1 (stereo not drawn)

>  <assay.target>
Candida albicans

>  <unit.string>
µg/mL

>  <MIC>
2

$$$$
>  <compound>
N#CC1(C(O)(Cn2cncn2)c2ccc(Cl)cc2Cl)CC1 (stereo not drawn)

>  <assay.target>
Candida albicans

>  <unit.string>
µg/mL

>  <MIC>
16

$$$$

I: N#CC1(C(O)(Cn2ccnc2)c2ccc(F)cc2)CC1 (stereo not drawn)
II: OC(Cn1cncn1)(Cn1cncn1)c1ccccc1 [B, reference compound]
Short answer wanted: higher MIC, I or II ? The response must carry the label of the picked entry.
II
(II: 64 µg/mL, I: 8 µg/mL)
